Would you mind telling me the reported IC50 of each entry?
# tgt: human factor XIa (Homo sapiens, UniProt P03951)
# Sequence (P03951 388-625 limits assumed): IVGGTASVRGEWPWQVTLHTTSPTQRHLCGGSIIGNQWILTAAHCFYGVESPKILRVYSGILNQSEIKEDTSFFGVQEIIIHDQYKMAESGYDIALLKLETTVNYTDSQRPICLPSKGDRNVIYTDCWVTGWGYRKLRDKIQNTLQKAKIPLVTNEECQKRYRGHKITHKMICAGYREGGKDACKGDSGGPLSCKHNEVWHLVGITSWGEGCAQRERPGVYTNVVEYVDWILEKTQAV
# Sequence (P03951 19-387 partner limits assumed): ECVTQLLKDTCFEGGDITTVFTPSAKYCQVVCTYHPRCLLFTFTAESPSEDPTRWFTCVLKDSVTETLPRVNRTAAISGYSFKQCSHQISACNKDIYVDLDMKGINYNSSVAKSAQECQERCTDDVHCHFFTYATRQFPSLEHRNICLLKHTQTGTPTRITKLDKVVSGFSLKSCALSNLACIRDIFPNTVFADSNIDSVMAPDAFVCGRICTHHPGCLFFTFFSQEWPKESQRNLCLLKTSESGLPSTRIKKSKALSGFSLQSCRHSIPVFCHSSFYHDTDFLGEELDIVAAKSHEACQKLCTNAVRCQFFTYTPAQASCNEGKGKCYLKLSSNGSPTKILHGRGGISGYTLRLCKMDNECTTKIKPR
Counter-ions that a name gives are not always drawn.
Number only, in nM; omit the unit.

Challenge: I have this compound here, Cc1cc(C(=O)N[C@@H]2CCCNC2=O)ccc1-c1ccc(C[C@H](NC(=O)[C@H]2CC[C@H](CN)CC2)C(=O)Nc2ccc(-c3nnc(C(F)(F)C(F)(F)C(=O)O)[nH]3)cc2)cc1 [Example 166, hydrochloride] , and I need its recorded IC50.
Response given: 0.8

Challenge: So what's the measured IC50 for this one? Cc1cc(C(=O)NC(CN(C)C)CN(C)C)ccc1-c1ccc(C[C@H](NC(=O)[C@H]2CC[C@H](CN)CC2)C(=O)Nc2ccc(-c3nn[nH]n3)cc2)cc1 [Example 66, hydrochloride]
Response given: 29

Challenge: # query: IC50 of entry Cc1cc(C(=O)N2CCCC2)ccc1-c1ccc(C[C@H](NC(=O)[C@H]2CC[C@H](CN)CC2)C(=O)Nc2ccc(-c3nn[nH]n3)cc2)cc1 [Example 20]
Response given: 1.8

Challenge: Bench note: what IC50 did NC[C@H]1CC[C@H](C(=O)N[C@@H](Cc2ccc(-c3ccc(C(=O)N[C@H]4CC[C@H](O)CC4)c(F)c3)cc2)C(=O)Nc2ccc(-c3n[nH]c(C(F)(F)C(F)(F)C(=O)O)n3)cc2)CC1 [Example 112, hydrochloride] show?
Response given: 2

Challenge: IC50 for COc1c(-c2ccc(C[C@H](NC(=O)[C@H]3CC[C@H](CN)CC3)C(=O)Nc3ccc(-c4nn[nH]n4)cc3)cc2)ccc(C(=O)NC2CCNCC2)c1F [Example 121, hydrochloride] ?
Response given: 1

====

# tgt: human factor XIa (Homo sapiens)
# Construct: purchased Kordia
# protocolDescription: Measurement of FXIa inhibition (fluorogenic peptide substrate Boc-Glu(OBzl)-Ala-Arg-AMC)
# Type: biochemical
# assayConditions: factor XIa from Kordia, 15 min preincubation, 30 min at 22° C., fluorescence
Structures can show the parent of a compound that is named as a salt.
# note: boundary value 7 nM maps to -1; IC50 below it maps to 1

Challenge: # check: IC50 < 7 nM for CCN(CC)CCCNC(=O)c1ccc(-c2ccc(C[C@H](NC(=O)[C@H]3CC[C@H](CN)CC3)C(=O)Nc3ccc4c(=O)[nH][nH]c4c3)cc2)c(C)c1 [Example 24, hydrochloride]
Response given: -1

Challenge: Regarding Cc1c(C(=O)NC2CCN(C)CC2)ccc(-c2ccc(C[C@H](NC(=O)[C@H]3CC[C@H](CN)CC3)C(=O)Nc3ccc(-c4nn[nH]n4)cc3)cc2)c1Cl [Example 125, hydrochloride] , kindly confirm whether its IC50 is beneath 7 nM.
Response given: 1

Challenge: Lab log: compare recorded IC50 with 7 nM; is it strictly lower for Cc1cc(C(=O)N[C@H]2CC[C@H](O)CC2)ccc1-c1ccc(CC(NC(=O)[C@H]2CC[C@H](CN)CC2)C(=O)Nc2ccc(-c3nnc(C(F)(F)C(F)(F)C(=O)O)[nH]3)cc2)cc1 (mixture of isomers) ?
Response given: 1

Challenge: Say whether its IC50 is strictly beneath 7 nM. Entry: Cc1cc(C(=O)N[C@@H](C)C(F)(F)F)ccc1-c1ccc(C[C@H](NC(=O)[C@H]2CC[C@H](CN)CC2)C(=O)Nc2ccc3[nH]c(=O)[nH]c3c2)cc1
Response given: 1

Challenge: Lab log: compare recorded IC50 with 7 nM; is it strictly lower for Cc1cc(C(=O)NC2CC2)ccc1-c1ccc(C[C@H](NC(=O)[C@H]2CC[C@H](CN)CC2)C(=O)Nc2ccc3[nH]nnc3c2)cc1 [Example 141, hydrochloride] ?
Response given: 1

====

Counter-ions that a name gives are not always drawn.
Provide the reported pIC50 of each item.
Quick note: pIC50 means taking -log10 of the concentration in moles per liter.

Challenge: Form: Entry = Cc1cc(C(=O)NC(C)C)ccc1-c1ccc(C[C@H](NC(=O)[C@H]2CC[C@H](CN)CC2)C(=O)Nc2cc(Cl)c3oc(=O)[nH]c3c2)cc1 [Example 156, hydrochloride] | System = human plasmin (Homo sapiens) | pIC50 = ____
Response given: 9.24

Challenge: Return pIC50 measured with human plasmin (Homo sapiens) given this molecule: Cc1cc(C(=O)NC(C)C)ccc1-c1ccc(C[C@H](NC(=O)[C@H]2CC[C@H](CN)CC2)C(=O)Nc2cc(Cl)c3cn[nH]c3c2)cc1 [Example 159, hydrochloride]
Sequence (P00747 581-810 limits assumed): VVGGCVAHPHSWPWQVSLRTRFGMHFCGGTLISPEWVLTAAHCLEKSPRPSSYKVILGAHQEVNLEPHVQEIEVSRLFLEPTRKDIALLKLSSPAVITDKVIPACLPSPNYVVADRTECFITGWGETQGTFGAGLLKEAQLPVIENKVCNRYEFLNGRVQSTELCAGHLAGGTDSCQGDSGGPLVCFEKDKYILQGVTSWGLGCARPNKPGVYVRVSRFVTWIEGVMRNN
Sequence (P00747 97-580 partner limits assumed): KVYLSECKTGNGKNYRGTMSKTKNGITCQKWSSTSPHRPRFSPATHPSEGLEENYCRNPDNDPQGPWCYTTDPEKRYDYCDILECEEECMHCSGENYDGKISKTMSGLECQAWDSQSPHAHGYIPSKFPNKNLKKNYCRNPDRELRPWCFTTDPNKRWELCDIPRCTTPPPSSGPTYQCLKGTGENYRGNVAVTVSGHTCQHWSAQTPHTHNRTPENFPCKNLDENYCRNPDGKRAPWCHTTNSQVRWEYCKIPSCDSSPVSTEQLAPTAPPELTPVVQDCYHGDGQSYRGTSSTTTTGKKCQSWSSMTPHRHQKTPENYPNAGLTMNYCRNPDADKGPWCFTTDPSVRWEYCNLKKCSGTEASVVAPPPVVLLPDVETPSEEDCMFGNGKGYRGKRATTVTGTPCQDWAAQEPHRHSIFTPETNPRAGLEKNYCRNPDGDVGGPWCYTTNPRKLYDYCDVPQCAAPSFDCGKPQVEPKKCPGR
Response given: 9.49

Challenge: Lab request: please report pIC50 under test system human plasmin (Homo sapiens) for Cc1cc(C(=O)NC(C)C)ccc1-c1ccc(C[C@H](NC(=O)[C@H]2CC[C@H](CN)CC2)C(=O)Nc2cc(Cl)c3[nH]c(=O)[nH]c3c2)cc1 [Example 158, hydrochloride]
Response given: 9.37

Challenge: Query the reported pIC50 for human plasmin (Homo sapiens); item: CC(C)NC(=O)c1ccc(-c2ccc(C[C@H](NC(=O)[C@H]3CC[C@H](CN)CC3)C(=O)Nc3ccc4[nH]c(=O)[nH]c4c3)cc2)c(Cl)c1 [Example 137, hydrochloride]
Response given: 8.66

Challenge: Find pIC50 (human plasmin (Homo sapiens)) for the entry Cc1cc(C(=O)NC(C)C)ccc1-c1ccc(C[C@H](NC(=O)[C@H]2CC[C@H](CN)CC2)C(=O)Nc2ccc(-c3nn[nH]n3)cc2)cc1 [Example 7, hydrochloride]
Response given: 8.72

Challenge: Param readout = pIC50; param system = human plasmin (Homo sapiens); param query = Cc1cc(C(=O)NC2CC(O)C2)ccc1-c1ccc(C[C@H](NC(=O)[C@H]2CC[C@H](CN)CC2)C(=O)Nc2ccc3cn[nH]c3c2)cc1 (some centres unmarked) [Example 164, hydrochloride] ; response: value
Response given: 7.89

Challenge: Request body: readout pIC50, system human plasmin (Homo sapiens), query Cc1cc(C(=O)NC(C)C)ccc1-c1ccc(C[C@H](NC(=O)[C@H]2CC[C@H](CN)CC2)C(=O)Nc2ccc(-c3nn[nH]n3)c(F)c2)cc1 [Example 96, hydrochloride] . Return the value.
Response given: 8.85

Challenge: Return pIC50 measured with human plasmin (Homo sapiens) given this molecule: Cc1cc(C(=O)N[C@@H](C)C(F)(F)F)ccc1-c1ccc(C[C@H](NC(=O)[C@H]2CC[C@H](CN)CC2)C(=O)Nc2ccc3[nH]c(=O)[nH]c3c2)cc1 [Example 133]
Response given: 8.80

Challenge: Record Cc1cc(C(=O)NC(C)C)ccc1-c1ccc(C[C@H](NC(=O)C2CCC(CN)CC2)C(=O)Nc2ccc3cn[nH]c3c2)cc1 (single isomer, unassigned; enantiomer 2) [Example 170] : what is its pIC50 with human plasmin (Homo sapiens)?
Response given: 8.89

Challenge: Lab note: need pIC50 for CC(C)NC(=O)c1ccc(-c2ccc(C[C@H](NC(=O)[C@H]3CC[C@H](CN)CC3)C(=O)Nc3cc(F)c4cn[nH]c4c3)cc2)c(Cl)c1 [Example 134, hydrochloride] on human plasmin (Homo sapiens), anyone have it?
Response given: 9.19

Challenge: What is its pIC50 for human plasmin (Homo sapiens)? Entry: Cc1cc(C(=O)NC(C)C)ccc1-c1ccc(C[C@H](NC(=O)[C@H]2CC[C@H](CN)CC2)C(=O)Nc2ccc(-c3nnc(CCC(=O)O)[nH]3)cc2)cc1 [Example 157, hydrochloride]
Response given: 8.77

Challenge: Requested read-out pIC50, target or system human plasmin (Homo sapiens), entry Cc1cc(C(=O)NC2CCC2)ccc1-c1ccc(C[C@H](NC(=O)[C@H]2CC[C@H](CN)CC2)C(=O)Nc2ccc3c(=O)[nH][nH]c3c2)cc1 [Example 162, hydrochloride]
Response given: 8.96

Challenge: Enter reported pIC50 observed with human plasmin (Homo sapiens) for CNC(=O)C(F)(F)C(F)(F)c1nnc(-c2ccc(NC(=O)[C@H](Cc3ccc(-c4ccc(C(=O)NC(C)C)cc4C)cc3)NC(=O)[C@H]3CC[C@H](CN)CC3)cc2)[nH]1 [Example 165, hydrochloride]
Response given: 8.72

Challenge: Form field - read-out: pIC50; system: human plasmin (Homo sapiens); submitted item: Cc1cc(C(=O)NC(C)C)ccc1-c1ccc(C[C@@H](NC(=O)C2CCC(CN)CC2)C(=O)Nc2ccc3cn[nH]c3c2)cc1 (single isomer, unassigned; enantiomer 1) [Example 169]
Response given: 6.57

Challenge: Param readout = pIC50; param system = human plasmin (Homo sapiens); param query = Cc1cc(C(=O)NC(C)C)ccc1-c1ccc(C[C@H](NC(=O)[C@H]2CC[C@H](CN)CC2)C(=O)Nc2ccc(-c3nnc(C(F)(F)C(F)(F)C(=O)O)[nH]3)cc2)cc1 [Example 116, hydrochloride] ; response: value
Response given: 8.36

Challenge: Can you look up pIC50 on human plasmin (Homo sapiens) for CC(NC(=O)c1ccc(-c2ccc(CC(NC(=O)[C@H]3CC[C@H](CN)CC3)C(=O)Nc3ccc(-c4nnn[nH]4)cc3)cc2)c(Cl)c1)C1CC1 (some centres unmarked) [Example 136, hydrochloride] ?
Response given: 8.82

Challenge: Item: Cc1cc(C(=O)NC(C)C)ccc1-c1ccc(C[C@H](NC(=O)[C@H]2CC[C@H](CN)CC2)C(=O)Nc2cc(C(=O)O)c3cn[nH]c3c2)cc1 [Example 161, hydrochloride] Test system: human plasmin (Homo sapiens) Read-out: pIC50 Value: ?
Response given: 8.17

Challenge: Give the reported pIC50 for Cc1cc(C(=O)NC(C)CO)ccc1-c1ccc(C[C@H](NC(=O)[C@H]2CC[C@H](CN)CC2)C(=O)Nc2ccc(-c3nnn[nH]3)cc2)cc1 (some centres unmarked) [Example 139, hydrochloride] (system: human plasmin (Homo sapiens)).
Response given: 7.89

Challenge: Item Cc1cc(C(=O)NC2CC2)ccc1-c1ccc(C[C@H](NC(=O)[C@H]2CC[C@H](CN)CC2)C(=O)Nc2ccc3cn[nH]c3c2)cc1 [Example 167, hydrochloride] with human plasmin (Homo sapiens) - pIC50?
Response given: 8.72

Challenge: Give recorded pIC50 with human plasmin (Homo sapiens) for the following molecule: Cc1cc(C(=O)NC2CCC2)ccc1-c1ccc(C[C@H](NC(=O)[C@H]2CC[C@H](CN)CC2)C(=O)Nc2ccc3cc(C(=O)O)[nH]c3c2)cc1 [Example 160, hydrochloride]
Response given: 8.89
